// reported viability, T/C per item
Test system: 885724-159-R-J1-PDC complex spheroid viability;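 further: spheroids exposed to agents for seven days before readout; percent of vehicle control viability where 100% = DMSO wells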
Experiment: Anticancer human tumor 885724-159-R-J1-PDC patient-derived pancreatic adenocarcinoma cell line growth inhibition [GQUAD]
Settings: second compound 1 µM; first compound 0.316 µM; stronger effect = lower value
Source text: DNA G-quadruplex Stabilizer Agents in Combinations in Complex Spheroids A high-throughput screen of multi-cell type tumor spheroids was designed to identify active combinations of DNA G-quadruplex stabilizer agents and targeted small molecules. […] Compounds. […] If the clinical Cmax for an agent had not been determined, the highest concentration tested was 10 microM. […]

Molecule | viability, T/C
Cn1ncnc1[C@H]1c2n[nH]c(=O)c3cc(F)cc(c23)N[C@@H]1c1ccc(F)cc1 + CN(C)c1ccc(Nc2c3ccc(NC(=O)CCN4CCCC4)cc3nc3cc(NC(=O)CCN4CCCC4)ccc23)cc1 | 76.2%
COc1cccc2c1C(=O)c1c(O)c3c(c(O)c1C2=O)CC(O)(C(=O)CO)CC3OC1CC(N)C(O)C(C)O1 (stereo unspecified) + Cc1[nH]c2ccc(F)cc2c1-c1nc2c3cccnc3c3ncccc3c2[nH]1 | 71.5%
C=CCn1c(=O)c2cnc(Nc3ccc(N4CCN(C)CC4)cc3)nc2n1-c1cccc(C(C)(C)O)n1 + Cc1[nH]c2ccc(F)cc2c1-c1nc2c3cccnc3c3ncccc3c2[nH]1 | 52.1%
Nc1ccn(C2OC(CO)C(O)C2(F)F)c(=O)n1 (stereo unspecified) + Cc1[nH]c2ccc(F)cc2c1-c1nc2c3cccnc3c3ncccc3c2[nH]1 | 65.8%
O=C(NO)c1cnc(N2CCN(S(=O)(=O)c3ccc4ccccc4c3)CC2)nc1 + Cc1cnc(CNC(=O)c2c(=O)c3ccc(N4CCCN(C)CC4)nc3n3c2sc2ccccc23)cn1 | 60%
CC1COCCN1c1cc(-c2ccnn2C)c2ccnc(-c3ccn[nH]3)c2n1 (stereo unspecified) + Cc1cnc(CNC(=O)c2c(=O)c3ccc(N4CCCN(C)CC4)nc3n3c2sc2ccccc23)cn1 | 69.3%

Reference for the values: PubChem BioAssay AID2060502
